assay: Lapatinib pharmacokinetics and uptake in rat brain tissue (BT); format: in vivo, rats; settings: male, Wistar, rat, brain, po, 100 mg/kg, brain tissue; lapatinib 100 mg/kg oral alone (IIL)
assay.endpoint: k el (s⁻¹)
Provide only the numeric value, understood in s⁻¹.

Query :: Quick check: k el of `CS(=O)(=O)CCNCc1ccc(-c2ccc3ncnc(Nc4ccc(OCc5cccc(F)c5)c(Cl)c4)c3c2)o1` ?
Result :: 6.94e-05

###

experiment: Lapatinib pharmacokinetics and uptake in rat brain tissue (BT);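 on BT corr (BT homogenate corrected), single rat: brain concentration corrected for residual brain blood by the Fridén method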; type: in vivo, rats; conditions: male, Wistar, rat, brain tissue homogenate, po, 100 mg/kg, lapatinib p.o. 100 mg/kg alone, 4 h; read-out: BT corr (BT homogenate corrected), single rat
assay.endpoint: concentration at 4 h (ng/mL)
Provide only the numeric value, understood in ng/mL.

Query :: Quick check: concentration at 4 h of CS(=O)(=O)CCNCc1ccc(-c2ccc3ncnc(Nc4ccc(OCc5cccc(F)c5)c(Cl)c4)c3c2)o1 [lapatinib] ?
Result :: 94.2

The measurements presented in this section are drawn from paper PMC7211195.
